MEASUREMENT NAME: melting point

- CCOCc1nc2c(N)nc3ccccc3c2n1CCOCCCS(=O)(=O)N(C)C [Example 15]: 61 to 64 °C
- CN(C)S(=O)(=O)CCCn1cnc2c(N)nc3ccccc3c21 [Example 7]: 155 to 157 °C
- CCOCc1nc2c(N)nc3ccccc3c2n1CCCCS(=O)(=O)N(C)C [Example 11]: 173 to 174 °C
- CCOCc1nc2c(N)nc3ccccc3c2n1CC(C)(C)CS(N)(=O)=O [Example 42]: 229 to 231 °C
- CCOCc1nc2c(N)nc3ccccc3c2n1CCCCCS(=O)(=O)N(C)C [Example 17]: 138 to 142 °C
- CCOCc1nc2c(N)nc3ccccc3c2n1CCCCCS(=O)(=O)NC [Example 16]: 175 to 179 °C
- CCc1nc2c(N)nc3ccccc3c2n1CCCCS(=O)(=O)NCc1ccc(OC)cc1 [Example 5]: 176 to 177 °C
- CCc1nc2c(N)nc3ccccc3c2n1CCCCS(=O)(=O)NC [Example 4]: 190 to 191 °C
- CCOCc1nc2c(N)nc3ccccc3c2n1CCCCCS(=O)(=O)NCc1ccc(OC)cc1 [Example 22]: 177 to 178 °C

---

The following molecules are shown together with reported melting point values.
MEASUREMENT NAME: melting point

• CCOCc1nc2c(N)nc3ccccc3c2n1CCCCS(=O)(=O)NC1CCCCC1 = 197 to 198 °C
• CCOCc1nc2c(N)nc3c(c2n1CCCCCS(N)(=O)=O)CCCC3 = 203 to 205 °C
• CCc1nc2c(N)nc3c(c2n1CCCCS(=O)(=O)NC)CCCC3 = 166 to 170 °C
• CCOCc1nc2c(N)nc3ccccc3c2n1CCCCS(=O)(=O)N1CCCCC1 = 185 to 188 °C
• CCOCc1nc2c(N)nc3cccnc3c2n1CCCCS(=O)(=O)N(C)C = 148 to 150 °C

---

The following compounds are shown together with reported melting point values.
Where a name gives a salt, the structure may show the parent alone.
MEASUREMENT NAME: melting point

• CCCc1nc2c(N)nc(C)c(C)c2n1CCCCS(=O)(=O)N(C)C [Example 26] = 127 to 128 °C
• CCCc1nc2c(N)nc(C)c(C)c2n1CCCCS(N)(=O)=O [Example 31] = 167 to 169 °C
• CCOCc1nc2c(N)nc(C)c(C)c2n1CCCCS(N)(=O)=O [Example 35] = 200 to 201.5 °C
• CCOCc1nc2c(N)nc3ccccc3c2n1CCCCS(=O)(=O)NC [Example 10] = 170 to 172 °C
• CCc1nc2c(N)nc3ccccc3c2n1CCCCS(N)(=O)=O (as salt: trifluoroacetate) [Example 6] = 225 to 227 °C

---

The following molecules are shown together with reported melting point values.
MEASUREMENT NAME: melting point

- CCOCc1nc2c(N)nc3cccnc3c2n1CCCCS(=O)(=O)NC: 148 to 150 °C
- CCc1nc2c(N)nc3ccccc3c2n1CCCS(=O)(=O)N(C)C: 209 to 211 °C
- CCOCc1nc2c(N)nc3ccccc3c2n1CCCCS(=O)(=O)NC(C)C: 146 to 147 °C
- CCOCc1nc2c(N)nc3ccccc3c2n1CC(C)(C)CS(=O)(=O)NC: 161 to 163 °C
- CCOCc1nc2c(N)nc(C)c(C)c2n1CCCCS(=O)(=O)NC: 194.5 to 196 °C
